Target: Melanocortin receptor 5 (Homo sapiens)
Sequence (P33032 whole entry): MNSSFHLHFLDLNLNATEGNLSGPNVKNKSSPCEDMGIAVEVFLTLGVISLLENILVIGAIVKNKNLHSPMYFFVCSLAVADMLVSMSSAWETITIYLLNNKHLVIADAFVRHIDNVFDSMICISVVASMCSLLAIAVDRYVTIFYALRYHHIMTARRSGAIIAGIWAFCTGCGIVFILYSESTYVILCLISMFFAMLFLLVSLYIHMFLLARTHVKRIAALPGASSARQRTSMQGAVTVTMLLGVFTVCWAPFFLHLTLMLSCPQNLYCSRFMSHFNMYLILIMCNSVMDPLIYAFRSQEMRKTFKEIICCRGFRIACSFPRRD
Test: Effective concentration towards human melanocortin-5 receptor mediated cAMP accumulation in CHO cells
Format: functional, cell-based
Conditions: cho
measured_attribute: EC50 (nM)
Answers are plain numbers, in nM.

CN1CCN[C@H](C(=O)N[C@H](Cc2ccc(F)cc2)C(=O)N2CCC(C(=O)NC(C)(C)C)(C3CCCCC3)CC2)C1 yielded EC50 of 1900

---

Biological target: Melanocortin receptor 4 (Homo sapiens, UniProt P32245)
Sequence (P32245 whole entry): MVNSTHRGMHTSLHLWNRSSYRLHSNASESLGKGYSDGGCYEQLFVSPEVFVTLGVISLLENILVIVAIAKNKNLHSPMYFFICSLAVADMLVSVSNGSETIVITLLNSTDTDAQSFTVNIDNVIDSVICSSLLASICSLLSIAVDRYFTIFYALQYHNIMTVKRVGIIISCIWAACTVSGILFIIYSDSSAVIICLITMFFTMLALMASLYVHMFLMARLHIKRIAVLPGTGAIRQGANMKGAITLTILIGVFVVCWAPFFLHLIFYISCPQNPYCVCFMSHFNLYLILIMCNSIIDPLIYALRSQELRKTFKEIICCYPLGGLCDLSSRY
Assay: Concentration for 50% inhibition of human melanocortin-4 receptor expressed in CHO cells using [125I]NDP-alpha-MSH as radioligand
measured_attribute: pIC50
Numbers only, as −log10 of the molar value.

* CCN1CCN[C@H](C(=O)N[C@H](Cc2ccc(F)cc2)C(=O)N2CCC(C(=O)NC(C)(C)C)(C3CCCCC3)CC2)C1 | 7.70

Quick one: give me pIC50 for each item below, same order please.
1. C[C@H](N)C(=O)N1CCN[C@H](C(=O)N[C@H](Cc2ccc(F)cc2)C(=O)N2CCC(C(=O)NC(C)(C)C)(C3CCCCC3)CC2)C1
2. CC(C)CN1CCN[C@H](C(=O)N[C@H](Cc2ccc(F)cc2)C(=O)N2CCC(C(=O)NC(C)(C)C)(C3CCCCC3)CC2)C1

Result:
[7.52, 8.10]
